# Experiment: Dynamic solubility of Form CS2 in SGF, FeSSIF, FaSSIF and water
# Format: physicochemical
# Stated Conditions: water, thermodynamic from solid; H2O, 24 h
Counter-ions that a name gives are not always drawn.
Endpoint: solubility at 24 h (µg/mL)
Just the number in µg/mL, nothing appended.

In: Request the reported solubility at 24 h associated with CC(C)Oc1ccc(-c2nc(-c3cccc4c3CC[C@@H]4NCCO)no2)cc1C#N [Form CS2, ozanimod hydrochloride]
Out: 2400

----------
# Experiment: Dynamic solubility of Form CS2 in SGF, FeSSIF, FaSSIF and water
# Format: physicochemical
# Stated Conditions: FaSSIF (fasted state simulated intestinal fluid), thermodynamic from solid; FaSSIF, 1 h
# Description: High Performance Liquid Chromatography (HPLC) data for solubility test in example 5 of the present disclosure were collected from an Agilent 1100 with Diode Array Detector (DAD). […] 20 mg of Form CS2 was suspended into 1.5 mL of SGF, 1.5 mL of […], 1.5 mL of […] and 1.5 mL of water to get saturated solutions. After equilibrated for 1 h, 4 h and 24 h, concentrations (mg/mL) of the saturated solutions were measured by HPLC.
Structures can show the parent of a compound that is named as a salt.
Endpoint: solubility at 1 h (µg/mL)
Just the number in µg/mL, nothing appended.

In: Request the reported solubility at 1 h associated with CC(C)Oc1ccc(-c2nc(-c3cccc4c3CC[C@@H]4NCCO)no2)cc1C#N [Form CS2, ozanimod hydrochloride]
Out: 3000

----------
# Experiment: Dynamic solubility of Form CS2 in SGF, FeSSIF, FaSSIF and water
# Type: physicochemical
# Stated Conditions: SGF (simulated gastric fluid), simulated gastric fluid, thermodynamic from solid; SGF, 24 h
Where a name gives a salt, the structure may show the parent alone.
Endpoint: solubility at 24 h (µg/mL)
Just the number in µg/mL, nothing appended.

In: Request the reported solubility at 24 h associated with CC(C)Oc1ccc(-c2nc(-c3cccc4c3CC[C@@H]4NCCO)no2)cc1C#N [Form CS2, ozanimod hydrochloride]
Out: 240

----------
# Experiment: Dynamic solubility of Form CS2 in SGF, FeSSIF, FaSSIF and water
# Format: physicochemical
# Stated Conditions: FaSSIF (fasted state simulated intestinal fluid), thermodynamic from solid; FaSSIF, 4 h
# Procedure: High Performance Liquid Chromatography (HPLC) data for solubility test in example 5 of the present disclosure were collected from an Agilent 1100 with Diode Array Detector (DAD). […] 20 mg of Form CS2 was suspended into 1.5 mL of SGF, 1.5 mL of […], 1.5 mL of […] and 1.5 mL of water to get saturated solutions. After equilibrated for 1 h, 4 h and 24 h, concentrations (mg/mL) of the saturated solutions were measured by HPLC.
Counter-ions that a name gives are not always drawn.
Endpoint: solubility at 4 h (µg/mL)
Just the number in µg/mL, nothing appended.

In: Request the reported solubility at 4 h associated with CC(C)Oc1ccc(-c2nc(-c3cccc4c3CC[C@@H]4NCCO)no2)cc1C#N [Form CS2, ozanimod hydrochloride]
Out: 3000

----------
# Experiment: Dynamic solubility of Form CS2 in SGF, FeSSIF, FaSSIF and water
# Assay type: physicochemical
# Stated Conditions: FeSSIF (fed state simulated intestinal fluid), thermodynamic from solid; FeSSIF, 24 h
Where a name gives a salt, the structure may show the parent alone.
Endpoint: solubility at 24 h (µg/mL)
Just the number in µg/mL, nothing appended.

In: Request the reported solubility at 24 h associated with CC(C)Oc1ccc(-c2nc(-c3cccc4c3CC[C@@H]4NCCO)no2)cc1C#N [Form CS2, ozanimod hydrochloride]
Out: 320

----------
# Experiment: Dynamic solubility of Form CS2 in SGF, FeSSIF, FaSSIF and water
# Assay type: physicochemical
# Stated Conditions: FaSSIF (fasted state simulated intestinal fluid), thermodynamic from solid; FaSSIF, 24 h
Structures can show the parent of a compound that is named as a salt.
Endpoint: solubility at 24 h (µg/mL)
Just the number in µg/mL, nothing appended.

In: Request the reported solubility at 24 h associated with CC(C)Oc1ccc(-c2nc(-c3cccc4c3CC[C@@H]4NCCO)no2)cc1C#N [Form CS2, ozanimod hydrochloride]
Out: 3100

----------
# Experiment: Dynamic solubility of Form CS2 in SGF, FeSSIF, FaSSIF and water
# Assay type: physicochemical
# Stated Conditions: water, thermodynamic from solid; H2O, 4 h
Counter-ions that a name gives are not always drawn.
Endpoint: solubility at 4 h (µg/mL)
Just the number in µg/mL, nothing appended.

In: Request the reported solubility at 4 h associated with CC(C)Oc1ccc(-c2nc(-c3cccc4c3CC[C@@H]4NCCO)no2)cc1C#N [Form CS2, ozanimod hydrochloride]
Out: 2200

----------
# Experiment: Dynamic solubility of Form CS2 in SGF, FeSSIF, FaSSIF and water
# Assay type: physicochemical
# Stated Conditions: FeSSIF (fed state simulated intestinal fluid), thermodynamic from solid; FeSSIF, 1 h
# Protocol: High Performance Liquid Chromatography (HPLC) data for solubility test in example 5 of the present disclosure were collected from an Agilent 1100 with Diode Array Detector (DAD). […] 20 mg of Form CS2 was suspended into 1.5 mL of SGF, 1.5 mL of […], 1.5 mL of […] and 1.5 mL of water to get saturated solutions. After equilibrated for 1 h, 4 h and 24 h, concentrations (mg/mL) of the saturated solutions were measured by HPLC.
Structures can show the parent of a compound that is named as a salt.
Endpoint: solubility at 1 h (µg/mL)
Just the number in µg/mL, nothing appended.

In: Request the reported solubility at 1 h associated with CC(C)Oc1ccc(-c2nc(-c3cccc4c3CC[C@@H]4NCCO)no2)cc1C#N [Form CS2, ozanimod hydrochloride]
Out: 300
